- Tested on: SF-295 CNS
- method: NCI tumour cell line growth inhibition, 48 h
Class fulfilled: TGI at least 50 µM. Class not fulfilled: TGI below 50 µM.

Illustrative cases are given below, each with its answer.
INSERT INTO assay_data (molecule, class) VALUES
  ('CC(C)[C@@]12C[C@@H](OC(=O)COC(=O)/C=C/c3ccccc3)[C@@](C)(O1)[C@@H]1CC[C@@H](C)[C@H]1[C@@H]2OC(=O)/C=C/c1ccccc1', 'fulfilled'),
  ('CC(=O)NCCSC(=O)c1ccccc1', 'not fulfilled');

Task: Form field: TGI at least 50 µM? Entry: `CN(CC(=O)O)c1ccc(/C=C/c2ccnc3ccccc23)cc1`
Result: fulfilled

Task: Form field: TGI at least 50 µM? Entry: `O=C1C=C[C@@]23C[C@@H](Nc4c(O)c5c6c(c42)=NCCC=6C=N5)SC3=C1`
Result: not fulfilled

Task: Form field: TGI at least 50 µM? Entry: CC(/C(=N/NC(=O)C(N)=O)c1c(Cl)ccc(Cl)c1O)C1(O)C(=O)Nc2ccccc21 (stereo not given)
Result: fulfilled

Task: Form field: TGI at least 50 µM? Entry: O=C(O)C12C3C4C1C1C2C3C1(Br)C41OCCO1 (stereo not given)
Result: fulfilled

Task: Form field: TGI at least 50 µM? Entry: C=CCOC1OC(CS(=O)(=O)O)C(O)C(O)C1O (stereo not given)
Result: fulfilled

Task: Form field: TGI at least 50 µM? Entry: `O=C1C=CC(=O)c2c(NCC3CC3)ccc(NCC3CC3)c21`
Result: fulfilled

Task: Form field: TGI at least 50 µM? Entry: `COc1ccc(C(=O)COc2cccc(/C=C3\CSc4ccccc4C3=O)c2)cc1`
Result: not fulfilled
